// provenance: ChEMBL document CHEMBL3603779

# Test target: Nuclear receptor subfamily 1 group I member 2 (Homo sapiens, UniProt O75469)
# Sequence (O75469 whole entry): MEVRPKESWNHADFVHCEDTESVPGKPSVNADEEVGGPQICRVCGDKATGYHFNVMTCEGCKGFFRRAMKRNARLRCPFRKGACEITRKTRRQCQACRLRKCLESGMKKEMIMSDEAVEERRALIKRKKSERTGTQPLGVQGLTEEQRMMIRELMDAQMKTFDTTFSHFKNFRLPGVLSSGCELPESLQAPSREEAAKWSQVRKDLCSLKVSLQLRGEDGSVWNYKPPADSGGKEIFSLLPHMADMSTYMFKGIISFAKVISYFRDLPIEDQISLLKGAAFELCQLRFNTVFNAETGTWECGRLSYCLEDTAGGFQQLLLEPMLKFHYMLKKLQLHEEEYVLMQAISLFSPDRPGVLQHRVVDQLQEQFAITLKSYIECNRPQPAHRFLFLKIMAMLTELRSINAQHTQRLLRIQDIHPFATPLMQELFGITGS
# Assay method text: Activation of human PXR expressed in human HepG2 cells co-expressing CYP3A4 assessed as CYP3A4 activation at 10 uM by luciferase reporter gene assay relative to rifampicin
# Type: ADME, cell-based
# Condition set: hepg2, 10 µM
Assay metric: Activity (%)

INSERT INTO results (record_smiles, units_symbol, value_measured) VALUES
  ('CCn1c([C@@H](C)NS(=O)(=O)c2ccc(C#N)nc2)nc2cnc(OC)cc21', '%', 11),
  ('CCn1c([C@@H](C)NS(=O)(=O)c2ccc(C#N)cc2)nc2cnc(C(F)(F)F)cc21', '%', 32),
  ('CCn1c([C@@H](C)NS(=O)(=O)c2ccc(C#N)nc2)nc2cnc(C3CC3)cc21', '%', 20),
  ('CCn1c([C@@H](C)NS(=O)(=O)c2ccc(C#N)cc2)nc2cnc(OC)cc21', '%', 18),
  ('CCn1c([C@@H](C)NS(=O)(=O)c2ccc(C#N)cc2)nc2cnc(C3CC3)cc21', '%', 27),
  ('CCn1c([C@@H](C)NS(=O)(=O)c2ccc(C#N)cc2)nc2cnccc21', '%', 14),
  ('CCn1c([C@@H](C)NS(=O)(=O)c2ccc(C#N)nc2)nc2cnc(C(F)(F)F)cc21', '%', 15);

---

# Assay method text: Volume of distribution at steady state in Han Wistar rat at 4 mg/kg, iv by LCMS/MS method
# Assay type: ADME, organism-based
# Condition set: in vivo, read-out: Vdss
Assay metric: Vd

INSERT INTO measurements (record_smiles, value_measured) VALUES
  ('CCn1c([C@@H](C)NS(=O)(=O)c2ccc(C#N)nc2)nc2cnc(C3CC3)cc21', '1.3 L/kg');

---

Parameter: pIC50. Scope: all listed entries.
# Test target: Cytochrome P450 3A5 (Homo sapiens, UniProt P20815)
# Sequence (P20815 whole entry): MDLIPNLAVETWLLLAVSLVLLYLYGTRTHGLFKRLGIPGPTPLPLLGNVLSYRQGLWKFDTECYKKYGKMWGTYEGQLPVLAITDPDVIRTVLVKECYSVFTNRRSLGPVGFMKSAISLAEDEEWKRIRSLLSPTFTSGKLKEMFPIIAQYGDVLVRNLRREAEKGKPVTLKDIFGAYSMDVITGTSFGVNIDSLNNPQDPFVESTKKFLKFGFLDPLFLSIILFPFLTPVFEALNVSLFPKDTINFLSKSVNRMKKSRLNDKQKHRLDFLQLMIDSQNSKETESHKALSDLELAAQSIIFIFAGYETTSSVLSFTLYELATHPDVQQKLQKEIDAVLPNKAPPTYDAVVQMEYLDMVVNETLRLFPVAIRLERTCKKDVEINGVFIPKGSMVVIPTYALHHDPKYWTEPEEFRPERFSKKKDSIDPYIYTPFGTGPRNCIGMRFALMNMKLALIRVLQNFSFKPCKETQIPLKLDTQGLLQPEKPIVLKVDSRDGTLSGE
pIC50: −log10 of the molar value.
Assay metric: pIC50

INSERT INTO assay_data (record_smiles, value_measured) VALUES
  ('CCn1c([C@@H](C)NS(=O)(=O)c2ccc(C#N)nc2)nc2cnc(C(F)(F)F)cc21', '< 4.70'),
  ('CCn1c([C@@H](C)NS(=O)(=O)c2ccc(C#N)nc2)nc2cnc(C3CC3)cc21', '< 4.70');

---

# Assay method text: Clearance in Han Wistar rat at 2 to 4 mg/kg, iv by LC-MS/MS method
# Format: ADME, organism-based
# Condition set: in vivo
Assay metric: clearance (mL/min/kg)

INSERT INTO assay_data (record_smiles, assay_metric, units_symbol, value_measured) VALUES
  ('CCn1c([C@@H](C)NS(=O)(=O)c2ccc(Cl)cc2)nc2ccc(C(F)(F)F)cc21', 'clearance', 'mL/min/kg', 33);

---

Parameter: microsomal CLint. Scope: all listed entries.
# Assay method text: Intrinsic clearance in human liver microsomes pre-incubated at 37 degC for 5 mins before NADPH addition by LCMS/MS method
# Assay type: ADME
# Condition set: read-out: CLH
Assay metric: microsomal CLint

INSERT INTO assay_data (molecule, value_measured) VALUES
  ('CCn1c(C(C)NS(=O)(=O)c2ccc(Cl)cc2)nc2cnccc21 (stereo not given)', '35 µL/min/mg'),
  ('CCn1c([C@@H](C)NS(=O)(=O)c2cccc(C#N)c2)nc2ccc(C(F)(F)F)cc21', '> 100 µL/min/mg'),
  ('CCn1c([C@@H](C)NS(=O)(=O)c2cnn(C(C)C)c2C)nc2ccc(C(F)(F)F)cc21', '> 100 µL/min/mg'),
  ('CCn1c([C@@H](C)NS(=O)(=O)c2cnc(NC(C)=O)s2)nc2ccc(C(F)(F)F)cc21', '15 µL/min/mg'),
  ('CCn1ncc(S(=O)(=O)N[C@H](C)c2nc3ccc(C(F)(F)F)cc3n2CC)c1C', '> 100 µL/min/mg');
